The entries below are paired with their reported Activity.
tested on: Serum; assay: Metabolic stability in human serum assessed as compound degradation rate at 1 mM by MALDI-TOF mass spectrometry assay; assay type: ADME, cell-free; details: 1000 µM
Non-standard residues stand in square brackets, D forms with d. Residues, ends and D or L forms follow the SMILES beside them. *: point of attachment. Pentanoyl(5-guanidino) = NC(N)=NCCCCC(=O)*; X2 = [N-]=[N+]=N[C@@H](CCCCN)CC(=O)*; NMeR = CN[C@@H](CCCNC(=N)N)C(=O)O; Tle = CC(C)(C)[C@H](N)C(=O)O
# unit: µmol/min | format: bare number

Illustrative cases are given below, each with its answer.
CN[C@@H](CCCNC(=N)N)C(=O)N[C@@H](CCCCN)C(=O)N1CCC[C@H]1C(=O)N[C@@H](Cc1c[nH]c2ccccc12)C(=O)N[C@H](C(=O)N[C@@H](CC(C)C)C(=O)O)C(C)(C)C (H-[NMeR]KPW[Tle]L-OH)    0.068
CC[C@@H](C)[C@H](NC(=O)[C@H](Cc1ccc(O)cc1)NC(=O)[C@@H]1CCCN1C(=O)[C@H](CCCNC(=N)N)NC(=O)CCCCNC(=N)N)C(=O)N[C@@H](CC(C)C)C(=O)O    2.17
CC[C@@H](C)[C@H](NC(=O)[C@H](Cc1ccc(O)cc1)NC(=O)[C@@H]1CCCN1C(=O)[C@H](CCCN=C(N)N)NC(=O)[C@H](CCCN=C(N)N)N=[N+]=[N-])C(=O)N[C@@H](CC(C)C)C(=O)O    1.65
CC(C)C[C@H](NC(=O)[C@@H](NC(=O)[C@H](Cc1c[nH]c2ccccc12)NC(=O)[C@@H]1CCCN1C(=O)[C@H](CCCCN)NC(=O)CCCCNC(=N)N)C(C)(C)C)C(=O)O ({Pentanoyl(5-guanidino)}-KPW[Tle]L-OH)    0.081
CC(=O)N[C@@H](CCCNC(=N)N)C(=O)N[C@@H](CCCCN)C(=O)N1CCC[C@H]1C(=O)N[C@@H](Cc1c[nH]c2ccccc12)C(=O)N[C@H](C(=O)N[C@@H](CC(C)C)C(=O)O)C(C)(C)C (Ac-RKPW[Tle]L-OH)    0.068

Task: Query the reported Activity for Serum; item: CC(C)C[C@H](NC(=O)[C@@H](NC(=O)[C@H](Cc1ccc(O)cc1)NC(=O)[C@@H]1CCCN1C(=O)[C@H](CCCNC(=N)N)NC(=O)C[C@H](CCCCN)N=[N+]=[N-])C(C)(C)C)C(=O)O (X2-RPY[Tle]L-OH)
Result: 0.133

Task: Query the reported Activity for Serum; item: CC(C)C[C@H](NC(=O)[C@@H](NC(=O)[C@H](Cc1c[nH]c2ccccc12)NC(=O)[C@@H]1CCCN1C(=O)[C@H](CCCCN)NC(=O)[C@@H](N)CCCN=C(N)N)C(C)(C)C)C(=O)O (H-RKPW[Tle]L-OH)
Result: 31.8

====

tested on: Serum; assay: Metabolic stability in rat serum assessed as compound degradation rate at 1 mM by MALDI-TOF mass spectrometry assay; type: ADME, cell-free; details: 1000 µM
Starred links: 1 amine or outer side, 2 acyl side, 3 side chain; linkers in the order of their positions; H or OH if unused. Non-standard residues stand in square brackets, D forms with d. Residues, ends and D or L forms follow the SMILES beside them. *: point of attachment. NMeβ3hLys = CN([C@@H](CCCCN)CC(=O)[*:2])[*:1]; X1 = [N-]=[N+]=N[C@@H](CCCNC(=N)N)C(=O)*; X2 = [N-]=[N+]=N[C@@H](CCCCN)CC(=O)*; NMeR = CN[C@@H](CCCNC(=N)N)C(=O)O; αMeR = C[C@](N)(CCCNC(=N)N)C(=O)O; Tle = CC(C)(C)[C@H](N)C(=O)O; β3hK = NCCCC[C@H](N)CC(=O)O; Ahp = NCCCCCCC(=O)O
Could you mark each record 1.0 if its Activity falls strictly under 0.1 µmol/min, and 0.0 if it equals or exceeds it?

CC(=O)N[C@@H](CCCCN)CC(=O)N[C@@H](CCCN=C(N)N)C(=O)N1CCC[C@H]1C(=O)N[C@@H](Cc1ccc(O)cc1)C(=O)N[C@H](C(=O)N[C@@H](CC(C)C)C(=O)O)C(C)(C)C (Ac-[β3hK]RPY[Tle]L-OH)    0.0
CC(C)C[C@H](NC(=O)[C@@H](NC(=O)[C@H](Cc1c[nH]c2ccccc12)NC(=O)[C@@H]1CCCN1C(=O)[C@H](CCCCN)NC(=O)[C@@](C)(N)CCCNC(=N)N)C(C)(C)C)C(=O)O (H-[αMeR]KPW[Tle]L-OH)    1.0
CC(C)C[C@H](NC(=O)[C@@H](NC(=O)[C@H](Cc1ccc(O)cc1)NC(=O)[C@@H]1CCCN1C(=O)[C@H](CCCNC(=N)N)NC(=O)C[C@H](CCCCN)N=[N+]=[N-])C(C)(C)C)C(=O)O (X2-RPY[Tle]L-OH)    0.0

Task: Consider CC(C)C[C@H](NC(=O)[C@@H](NC(=O)[C@H](Cc1ccc(O)cc1)NC(=O)[C@@H]1CCCN1C(=O)[C@H](CCCNC(=N)N)NC(=O)CCCCCCN)C(C)(C)C)C(=O)O (H-[Ahp]RPY[Tle]L-OH) . Does its Activity lie strictly below 0.1 µmol/min?
Result: 0.0

Task: Consider CN[C@@H](CCCNC(=N)N)C(=O)N[C@@H](CCCCN)C(=O)N1CCC[C@H]1C(=O)N[C@@H](Cc1c[nH]c2ccccc12)C(=O)N[C@H](C(=O)N[C@@H](CC(C)C)C(=O)O)C(C)(C)C (H-[NMeR]KPW[Tle]L-OH) . Does its Activity lie strictly below 0.1 µmol/min?
Result: 1.0

Task: Consider CC(C)C[C@H](NC(=O)[C@@H](NC(=O)[C@H](Cc1c[nH]c2ccccc12)NC(=O)[C@@H]1CCCN1C(=O)[C@H](CCCCN)NC(=O)[C@@H](N)CCCN=C(N)N)C(C)(C)C)C(=O)O (H-RKPW[Tle]L-OH) . Does its Activity lie strictly below 0.1 µmol/min?
Result: 0.0

Task: Consider CC[C@@H](C)[C@H](NC(=O)[C@H](Cc1ccc(O)cc1)NC(=O)[C@@H]1CCCN1C(=O)[C@H](CCCNC(=N)N)NC(=O)[C@@](C)(N)CCCNC(=N)N)C(=O)N[C@@H](CC(C)C)C(=O)O . Does its Activity lie strictly below 0.1 µmol/min?
Result: 0.0

Task: Consider CC(C)C[C@H](NC(=O)[C@@H](NC(=O)[C@H](Cc1c[nH]c2ccccc12)NC(=O)[C@@H]1CCCN1C(=O)[C@H](CCCCN)NC(=O)[C@H](CCCNC(=N)N)N=[N+]=[N-])C(C)(C)C)C(=O)O (X1-KPW[Tle]L-OH) . Does its Activity lie strictly below 0.1 µmol/min?
Result: 0.0

Task: Consider CC[C@H](C)[C@H](NC(=O)[C@H](Cc1ccc(O)cc1)NC(=O)[C@@H]1CCCN1C(=O)[C@H](CCCNC(=N)N)NC(=O)[C@H](CCCNC(=N)N)NC(C)=O)C(=O)N[C@@H](CC(C)C)C(=O)O . Does its Activity lie strictly below 0.1 µmol/min?
Result: 0.0

Task: Consider CC(C)C[C@H](NC(=O)[C@@H](NC(=O)[C@H](Cc1ccc(O)cc1)NC(=O)[C@@H]1CCCN1C(=O)[C@H](CCCNC(=N)N)NC(=O)C[C@@H](N)CCCCN)C(C)(C)C)C(=O)O (H-[β3hK]RPY[Tle]L-OH) . Does its Activity lie strictly below 0.1 µmol/min?
Result: 0.0

Task: Consider CC[C@@H](C)[C@H](NC(=O)[C@H](Cc1ccc(O)cc1)NC(=O)[C@@H]1CCCN1C(=O)[C@H](CCCN=C(N)N)NC(=O)[C@H](CCCN=C(N)N)N=[N+]=[N-])C(=O)N[C@@H](CC(C)C)C(=O)O . Does its Activity lie strictly below 0.1 µmol/min?
Result: 0.0

Task: Consider CN[C@@H](CCCCN)CC(=O)N[C@@H](CCCN=C(N)N)C(=O)N1CCC[C@H]1C(=O)N[C@@H](Cc1ccc(O)cc1)C(=O)N[C@H](C(=O)N[C@@H](CC(C)C)C(=O)O)C(C)(C)C (NMeβ3hLys-RPY[Tle]L-OH) . Does its Activity lie strictly below 0.1 µmol/min?
Result: 0.0

Task: Consider CC[C@H](C)[C@H](NC(=O)[C@H](Cc1ccc(O)cc1)NC(=O)[C@@H]1CCCN1C(=O)[C@H](CCCNC(=N)N)NC(=O)[C@@H](N)CCCNC(=N)N)C(=O)N[C@@H](CC(C)C)C(=O)O . Does its Activity lie strictly below 0.1 µmol/min?
Result: 0.0

====

system: Serum; experiment: Metabolic stability in human serum assessed as compound degradation rate at 1 mM by MALDI-TOF mass spectrometry assay; assay type: ADME, cell-free; conditions: 1000 µM
Starred links: 1 amine or outer side, 2 acyl side, 3 side chain; linkers in the order of their positions; H or OH if unused. Non-standard residues stand in square brackets, D forms with d. Residues, ends and D or L forms follow the SMILES beside them. *: point of attachment. NMeβ3hLys = CN([C@@H](CCCCN)CC(=O)[*:2])[*:1]; Tle = CC(C)(C)[C@H](N)C(=O)O; X3 = C[C@](N)(CCCCN)CC(=O)*
The entries below are paired with their reported Activity.
# unit: µmol/min | format: bare number

CC(C)C[C@H](NC(=O)[C@@H](NC(=O)[C@H](Cc1ccc(O)cc1)NC(=O)[C@@H]1CCCN1C(=O)[C@H](CCCNC(=N)N)NC(=O)C[C@@](C)(N)CCCCN)C(C)(C)C)C(=O)O (X3-RPY[Tle]L-OH)    0.194

Task: Any idea what Activity was measured for CN[C@@H](CCCCN)CC(=O)N[C@@H](CCCN=C(N)N)C(=O)N1CCC[C@H]1C(=O)N[C@@H](Cc1ccc(O)cc1)C(=O)N[C@H](C(=O)N[C@@H](CC(C)C)C(=O)O)C(C)(C)C (NMeβ3hLys-RPY[Tle]L-OH) ?
Result: 0.146
